Reported microsomal CLint at 1 uM values are given for each entry in this list.
assay_protocol: Metabolic stability in human hepatic microsome
Assay type: in vitro ADME
run_parameters: microsomes, pH 7.4; human hepatic microsome, NADPH(+); read-out: CL NADPH(+)
Starred links: 1 amine or outer side, 2 acyl side, 3 side chain; linkers in the order of their positions; H or OH if unused. Positions of bridges follow the written chain, without caps; N, C: chain ends. Non-standard residues stand in square brackets, D forms with d. Residues, ends and D or L forms follow the SMILES beside them. *: point of attachment. NMeF = CN[C@@H](Cc1ccccc1)C(=O)O; NMeβAla = CN(CCC(=O)[*:2])[*:1]; NMeL = CN[C@@H](CC(C)C)C(=O)O; NMeA = CN[C@@H](C)C(=O)O; Piperidide = C1CCN(*)CC1; tBu = CC(C)(C)*

molecule: CC(C)C[C@@H]1NC(=O)[C@H](C)NC(=O)C[C@@H](C(=O)N2CCCCC2)NC(=O)[C@H](Cc2ccccc2)N(C)C(=O)[C@H](CC(C)C)N(C)C(=O)[C@H](C)NC(=O)[C@H](Cc2ccccc2)N(C)C(=O)[C@H](CC(C)C)N(C)C1=O [DP-673] (AL[NMeL][NMeF]A[NMeL][NMeF]D-Piperidide; lactam N-8)
microsomal CLint at 1 uM / µL/min/mg: 631

molecule: CC(C)C[C@H]1C(=O)N(C)[C@@H](Cc2ccccc2)C(=O)N[C@H](C(=O)N2CCCCC2)CC(=O)N(C)[C@@H](C)C(=O)N[C@@H](C)C(=O)N[C@@H]([C@@H](C)O)C(=O)N(C)[C@@H](CC(C)C)C(=O)N[C@@H](Cc2ccccc2)C(=O)N1C [DP-699] ([NMeA]AT[NMeL]F[NMeL][NMeF]D-Piperidide; lactam N-8)
microsomal CLint at 1 uM / µL/min/mg: 81

molecule: CC(C)C[C@H]1C(=O)NCC(=O)N[C@H](C(=O)N2CCCCC2)CC(=O)N(C)CCC(=O)N[C@@H]([C@@H](C)O)C(=O)N(C)[C@@H](C)C(=O)N[C@@H](COC(C)(C)C)C(=O)N(C)[C@@H](Cc2ccccc2)C(=O)N1C [DP-522] ([NMeβAla]T[NMeA]S(tBu)[NMeF][NMeL]GD-Piperidide; lactam N-8)
microsomal CLint at 1 uM / µL/min/mg: 87
